target: TSLP, Q969D9; test: Kd (SPR)
Value Kind: pKd
// scale note: pKd = -log10(conc_M); give the bare number

Binder	Val
unnamed (protein) chain 1: QMQLVESGGGVVQPGRSLRLSCAASGFTFRTYGMHWVRQAPGKGLEWVAVIWYDGSNKHYADSVKGRFTITRDNSKNTLNLQMNSLRAEDTAVYYCARAPRYDYYVEAFDVWGQGTMVTVSS chain 2: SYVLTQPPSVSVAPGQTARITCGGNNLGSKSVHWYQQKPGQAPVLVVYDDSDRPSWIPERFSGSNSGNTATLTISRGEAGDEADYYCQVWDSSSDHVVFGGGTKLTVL	6.96
unnamed (protein) chain 1: QMQLVESGGGVVQPGRSLRLSCAASGFTFRTYGMHWVRQAPGKGLEWVAVIWYDGSNKHYADSVKGRFTITRDNSKNTLNLQMNSLRAEDTAVYYCARAPRYDWAYEAFDVWGQGTMVTVSS chain 2: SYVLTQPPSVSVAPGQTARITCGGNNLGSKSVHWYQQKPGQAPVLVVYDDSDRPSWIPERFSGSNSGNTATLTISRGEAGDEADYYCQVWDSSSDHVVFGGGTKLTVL	6.39

// next entry
q: Specify reported pKd for the binder shown: unnamed (protein) chain 1: QMQLVESGGGVVQPGRSLRLSCAASGFTFSTYAMHWVRQAPGKGLEWVAVIWYDGSNKHYADSVKGRFTITRDNSKNTLNLQMNSLRAEDTAVYYCARAPRYDDYWEAFDVWGQGTMVTVSS chain 2: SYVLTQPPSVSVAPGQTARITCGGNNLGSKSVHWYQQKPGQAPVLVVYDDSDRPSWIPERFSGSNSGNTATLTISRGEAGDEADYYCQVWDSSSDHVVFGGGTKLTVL
a: 6.14
